Target: B1 bradykinin receptor (Homo sapiens)
Sequence (P46663 whole entry): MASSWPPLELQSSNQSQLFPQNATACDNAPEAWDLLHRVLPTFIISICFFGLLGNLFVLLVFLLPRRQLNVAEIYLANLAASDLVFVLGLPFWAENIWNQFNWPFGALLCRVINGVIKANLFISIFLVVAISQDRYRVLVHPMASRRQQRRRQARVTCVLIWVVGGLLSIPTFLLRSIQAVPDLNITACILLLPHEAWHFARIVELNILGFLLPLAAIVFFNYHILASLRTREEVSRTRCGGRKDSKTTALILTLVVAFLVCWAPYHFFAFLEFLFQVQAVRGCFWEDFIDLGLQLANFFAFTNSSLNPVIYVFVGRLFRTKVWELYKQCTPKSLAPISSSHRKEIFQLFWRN
Experiment: Displacement of [3H]DAKA from human bradykinin B1 receptor in IL1-beta stimulated IMR90 cells
readout_name: Ki (nM)

1. O=C(Nc1[nH]nc(C(=O)NCCc2ccncc2)c1Br)c1ccccc1Cl
2. COC(=O)[C@@H](NC(=O)c1n[nH]c(NC(=O)c2ccccc2Cl)c1Br)c1ccccc1
3. O=C(Nc1[nH]nc(C(=O)Nc2ccccc2)c1Br)c1ccccc1Cl
query: // rank the listed compounds by Ki, lowest value first Answer by listing the labels in the order asked for.
result: 2, 1, 3
